Molecular target: Taq DNA polymerase K540C/H784C (UniProt P19821 P19821:1-832, K540C,H784C)
Sequence (P19821 whole entry K540C/H784C, one chain of several): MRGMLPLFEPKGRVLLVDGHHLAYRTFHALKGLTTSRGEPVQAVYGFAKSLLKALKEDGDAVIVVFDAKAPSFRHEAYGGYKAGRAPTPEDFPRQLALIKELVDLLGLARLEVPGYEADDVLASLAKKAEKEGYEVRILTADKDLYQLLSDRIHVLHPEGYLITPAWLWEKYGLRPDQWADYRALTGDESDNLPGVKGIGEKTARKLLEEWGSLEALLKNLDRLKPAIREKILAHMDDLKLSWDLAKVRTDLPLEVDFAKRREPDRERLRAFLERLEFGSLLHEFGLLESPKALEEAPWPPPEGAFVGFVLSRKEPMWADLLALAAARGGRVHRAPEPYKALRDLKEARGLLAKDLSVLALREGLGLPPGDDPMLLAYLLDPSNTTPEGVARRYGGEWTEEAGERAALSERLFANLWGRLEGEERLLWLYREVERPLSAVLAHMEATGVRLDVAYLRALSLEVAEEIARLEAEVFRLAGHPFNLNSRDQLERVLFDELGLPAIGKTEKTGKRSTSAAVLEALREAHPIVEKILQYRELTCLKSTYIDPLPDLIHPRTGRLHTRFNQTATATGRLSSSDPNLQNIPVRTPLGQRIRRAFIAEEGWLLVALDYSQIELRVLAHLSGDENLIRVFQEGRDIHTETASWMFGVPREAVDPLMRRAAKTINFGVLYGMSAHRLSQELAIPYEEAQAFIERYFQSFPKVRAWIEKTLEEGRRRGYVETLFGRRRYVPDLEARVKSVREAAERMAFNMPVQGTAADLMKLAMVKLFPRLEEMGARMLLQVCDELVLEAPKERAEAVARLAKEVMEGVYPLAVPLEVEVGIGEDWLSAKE
Assay: EMSA; 1x TAE with 2 mM EDTA, pH 8.3, 10% glycerol
Settings: tags: Fermentas; label: 5'-33P
endpoint: Kd (nM)

# binder, endpoint, reported_value
measured = [
    ("TTTTAGCCGCTAGAGTCGACCTGC (ssDNA) [24 nt primer]", "Kd", 460),
]
